Data credit: the supplement of paper PMC9170038

- System: MS2 coat protein
- assay-protocol: apparent KD of MS2 coat protein; higher = weaker reporter binding
- measurement-setup: Eterna round: R107; input ligand: theophylline 2 mM
Each record gets a class by apparent KD of MS2 coat protein: low class: < 40 nM; middle class: ≥ 40 nM and < 80 nM; high class: ≥ 80 nM

# input Place this sequence in its band: ACAUGAGGAUCACCCAUGUACAUAAGGGAAGGAGCGCGGUGAAACGCAGGUAGGUCGCCCAUAAUAACAAACAUUAAAUUCAUGU [LeftA2]
# output low class

# input Place this sequence in its band: UUGUUGUUUGGAAGGAGCGUGUAAGAUUAAGAACAUGAGGAUCACCCAUGUUGUAAGGUAGCACAGGUAGGUCGCCGGGUGGUGG [11.T]
# output low class

# input Place this sequence in its band: ACACGAAGCUGAAGGAGCGUGGUAUAAAUUUUUACAUGAGGAUCACCCAUGUUUCAUCAAUCACAGGUAGGUCGCAGAUGCGUGA [JR_SSArginiB_Sub014]
# output low class

# input Place this sequence in its band: GGAUAGGACACGGCCGCCACUACCUAGGAUACUAGCAACAUUUGGGUAUAUGAGGAUCACCCAUAUAGGACCGGGUGUCCUAUCG
# output high class

# input Place this sequence in its band: GGGCCCGGGCGCGAGCCCGGGCCCAUUGAUACCAGUGAGAGAGAGCGCCCUUGGCAGCGAAUCCUAACAUGAGGAUCACCCAUGU [5.N]
# output high class

# input Place this sequence in its band: UCCUCCUCCGCAAGGAGGAGGAGUUGCGAUACCAGCACGGUAACGUGCCCUUGGCAGCGCACAUGAGGAUCACCCAUGUGGUGUU [#1 Exclusion - Theophylline A Attempt #12 (HarryS)]
# output high class

# input Place this sequence in its band: UGACGAGGCCUGGAUACCAGCGACAUGAGGAUCACCCAUGUAUGAGGAUCAGCCAUGUUAUGCCCUUGGCAGCCACGAAGGUCAG [WQQMULLIN]
# output high class

# input Place this sequence in its band: CUCAUCCACGCGGCCGCCACUAUAUUGUGGUGCGUAUGUGUCGUAAUACAUGAGGAUCACCCAUGUAGGACCGGGCGUGGAUGAG [#10 Exclusion Tryptophan B]
# output low class

# input Place this sequence in its band: UAUCCACAUGAGGAUCACCCAUGUUAGGAAGGAGCGGUGAGUGCACCAGGUAGGUCGCCUAGCUGAGGACUGUCGGUGGAUUCGU [Exclusion - Arginine A (Freestyle 20)]
# output middle class

# input Place this sequence in its band: AUGCAUAGCCGAAGGAGCGCAAUAGAAUGACAUGAGGAUCACCCAUGUGUGUGAUGUGGAUUGCAGGUAGGUCGCGGAGUGGUAU [Exclusion - Arginine B (Freestyle 4)]
# output middle class

# input Place this sequence in its band: UGUAUGUGAUCUGAUACCAGAGUGAAUAAACGCGAAAGCGCCUGAGGAUCACCCUGGUAACUCCCUUGGCAGCAGAUCGCAUACU
# output middle class

# input Place this sequence in its band: GCGUACGAUCGGGAUACCAGACAUUGCCGUUAGGGUGAACCUGAGGAACACCCAGGUUUUGUCCCUUGGCAGCCCGAUCGUACGC [ETB NP+V+V2 #8 Diff Apt, Same Structure]
# output high class

# input Place this sequence in its band: GCAUCCUAGUCGGCCGCCACUGCAACAUGAGGAUCACCCAUGUCUGCAUCUUCAUGAUGCAGUAGCAGGACCGGGACUAGGAUGC [(T1)-(M1)-(M2)-(T)''-(M)'-(T)'-(T2)_Design1_2/18/17]
# output high class

# input Place this sequence in its band: ACCUCAUGUAGAAGGAGCGUCAGAAGCUACAGACAUGAGGAUCACCCAUGUUAGUUGAUCUGACAGGUAGGUCGCUACAGCAGGA [#23 Same State - Arginine B]
# output low class

# input Place this sequence in its band: AAUUCAAUUUUCUUGAUGUAUUAUAUAUUUCGAGGACCGGUACGGCCGCCACUCGUUAAUUACAUGAGGAUCACCCAUGUUAGCU [JR_ExcTryptoA_Sub009]
# output low class

# input Place this sequence in its band: AGUCUUAUAGGAAGGAGCGCAAUCAUAACAUGAGGAUCACCCAUGUCGAGGUGAGGGUCAUUGCAGGUAGGUCGCCUAACUAAGA [Same State - Arginine B (Freestyle 8)]
# output high class

# input Place this sequence in its band: GGUUACUCUACGGCCGCCACUGUAAUGUAAAGAUACCUGUACAUGACAUGAGGAUCACCCAUGUGCAGGACCGGGUAGUGUAACC [Tryptophan B 19]
# output middle class

# input Place this sequence in its band: AUAACAUGAGGAUCACCCAUGUAAGCUGAAGGAGCGCUGGAAACAGCAGGUAGGUCGCAGCUACCUACCACCUCAUGAGGUAGGU [(M1)-(M2)-(Arg1)-(Arg2)-(A)'-(M)'-(A)''_Design6]
# output low class

# input Place this sequence in its band: ACAUUUAACUGAAGGAGCGUGAUAUUUACAUGAGGAUCACCCAUGUCUAUCAUGAGAUAUUCACAGGUAGGUCGCAGACUAAUGA [JR_ExcArginiB_Sub005]
# output middle class
